- System: P. falciparum 3D7
- test.summary: DAPI stain fluorescent high content imaging assay, P. falciparum 3D7 (confirmatory screen, Avery)
- conditions: Plasmodium falciparum, 3D7, read-out: EC50_nM

{"compound": "O=C(CCc1ccco1)NC1CCN(CC2(c3ccc(Cl)cc3)CCC2)CC1", "target": "P. falciparum 3D7", "EC50 [nM]": 1140}
{"compound": "CCCn1c(=N)c(C(=O)NC2CCCCC2)cc2c(=O)n3cccc(C)c3nc21", "target": "P. falciparum 3D7", "EC50 [nM]": 1110}
{"compound": "CN1CCN(c2nc(Nc3ccc(O)cc3)nc3ccccc23)CC1", "target": "P. falciparum 3D7", "EC50 [nM]": 1430}
{"compound": "CN(C)CCCNCc1ccc(-c2ccc(F)c(Cl)c2)o1", "target": "P. falciparum 3D7", "EC50 [nM]": 876}
{"compound": "COc1cc(OC)cc(N2C(=O)N(Cc3ccc(C(C)(C)C)cc3)c3ccccc3S2(=O)=O)c1", "target": "P. falciparum 3D7", "EC50 [nM]": 1430}
{"compound": "O=C(Nc1ccc(CN2CCOCC2)cc1)c1ccc(-c2ccc(Br)cc2)o1", "target": "P. falciparum 3D7", "EC50 [nM]": 1360}
{"compound": "O=C(Nc1ccc(N2CCN(Cc3ccccc3)CC2)cc1)c1cccs1", "target": "P. falciparum 3D7", "EC50 [nM]": 1080}
{"compound": "CC(C)OCc1cc(CN2CCN(c3cccc(Cl)c3)CC2)c(O)c2ncccc12", "target": "P. falciparum 3D7", "EC50 [nM]": 697}
{"compound": "O=C(Nc1ccc(-c2nc3ccccc3[nH]2)cc1)c1ccc(Cl)c(Cl)c1", "target": "P. falciparum 3D7", "EC50 [nM]": 838}
{"compound": "CCCCCCn1c(=N)n(CC(O)COc2cccc(C)c2)c2ccccc21 (stereo not drawn)", "target": "P. falciparum 3D7", "EC50 [nM]": 1140}
{"compound": "CCOc1cc2c(cc1OCC)C(c1cc(Cl)c(O)c(OCC)c1)NCC2 (stereo not drawn)", "target": "P. falciparum 3D7", "EC50 [nM]": 1330}
{"compound": "CC1(c2ccccc2)Nc2ccccc2-c2nc3ccccc3n21 (stereo not drawn)", "target": "P. falciparum 3D7", "EC50 [nM]": 1730}
{"compound": "O=C(Nc1cccc(-c2nc3ccccc3[nH]2)c1)c1cccc(NC(=O)c2ccco2)c1", "target": "P. falciparum 3D7", "EC50 [nM]": 745}
{"compound": "Cc1ccccc1OCCSc1nc2ccc(NC(=O)c3ccccc3)cc2s1", "target": "P. falciparum 3D7", "EC50 [nM]": 1120}
{"compound": "Cc1sc(NC(=O)c2ccco2)c(C(c2cccnc2)N2CCC(Cc3ccccc3)CC2)c1C (stereo not drawn)", "target": "P. falciparum 3D7", "EC50 [nM]": 1020}
{"compound": "COc1ccc(-c2nc3cc(Cc4ccc5[nH]c(-c6ccc(OC)cc6)nc5c4)ccc3[nH]2)cc1", "target": "P. falciparum 3D7", "EC50 [nM]": 176}
{"compound": "Cc1ccc2nc(C)cc(Nc3cccc(C(F)(F)F)c3)c2c1", "target": "P. falciparum 3D7", "EC50 [nM]": 1170}
{"compound": "CCOc1ccc(CN2CCN(CC(O)COc3ccc(OCC(O)CN4CCN(Cc5ccc(OCC)cc5)CC4)cc3)CC2)cc1 (stereo not drawn)", "target": "P. falciparum 3D7", "EC50 [nM]": 1200}
{"compound": "Cc1ccc(F)cc1NC(=O)c1cc(Cl)ccc1Nc1ccccc1", "target": "P. falciparum 3D7", "EC50 [nM]": 539}
{"compound": "Cc1cccc(-n2ncc3c(=O)[nH]c(-n4nc(C)cc4NC(=O)c4cc5ccccc5o4)nc32)c1", "target": "P. falciparum 3D7", "EC50 [nM]": 929}
{"compound": "COc1cc(SC)ccc1C(=O)N1CCCC(C)C1 (stereo not drawn)", "target": "P. falciparum 3D7", "EC50 [nM]": 4000}
{"compound": "COc1cccc(NC(=O)[C@H](C(C)C)n2c(=O)[nH]c3ccccc3c2=O)c1", "target": "P. falciparum 3D7", "EC50 [nM]": 139}
{"compound": "CC(C)(C)c1ccc2c(c1)CN(Cc1ccc(Cl)cc1)CO2", "target": "P. falciparum 3D7", "EC50 [nM]": 362}
{"compound": "Cc1cc(C)c2nc(N3CCC(C(=O)NCCCN4CCC(N5CCCCC5)CC4)CC3)sc2c1", "target": "P. falciparum 3D7", "EC50 [nM]": 697}
{"compound": "Cc1cc(C=C2SC(=Nc3ccccc3)N(C3CCCC3)C2=O)c(C)n1-c1ccc(Cl)cc1", "target": "P. falciparum 3D7", "EC50 [nM]": 263}
{"compound": "Clc1ccc2c(N3CCCC3)ccnc2c1", "target": "P. falciparum 3D7", "EC50 [nM]": 944}
{"compound": "CCn1c2c(c(=N)c3c1CCC3)CCCC2", "target": "P. falciparum 3D7", "EC50 [nM]": 694}
